test system: rat chronic carcinogenicity bioassay, TD50; test: DSSTox (CPDBAS) Carcinogenic Potency Database Summary Rat Bioassay Results; conditions: TD50_Rat_Note: TD50 is harmonic mean of more than one positive test; greater than ten-fold variation among TD50 values for positive res; TargetSites_Rat_Female: hematopoietic system; kidney; large intestine; urinary bladder; hits give low values
recorded endpoint: Potency

Ask: // Potency lookup, key: `COc1ccccc1[N+](=O)[O-]`
Result: 15.6 mg/kg/day

###

test system: rat chronic carcinogenicity bioassay, TD50; test: DSSTox (CPDBAS) Carcinogenic Potency Database Summary Rat Bioassay Results; details: TargetSites_Rat_Female: esophagus; liver; hits give low values
recorded endpoint: Potency

Ask: I would be grateful if you could share the reported Potency for `C=CCN(CC(C)=O)N=O` .
Result: 0.335 mg/kg/day

Cited source for all entries: PubChem BioAssay AID1208
